method_summary: AUC(0 to infinity) in Sprague-Dawley rat at 0.1 mg/kg, iv or 1 mg/kg, po by LC-MS/MS analysis
Type: ADME, organism-based
test_conditions: in vivo
measured_attribute: AUC(0-inf) (ng·h/mL)
Expressed in ng·h/mL, but write only the number.

Task: Which value of AUC(0-inf) has been reported for Oc1nc(-c2cc(-c3ccon3)n(Cc3ccccc3F)n2)ncc1F in the records?
Output: 25000

----------
method_summary: Dissociation constant, pKa of the compound
Type: physicochemical
measured_attribute: pKa
Response field accepts a number only; no unit should be typed.

Task: Request the reported pKa associated with Oc1nc(-c2cc(-c3ccon3)n(Cc3ccccc3F)n2)ncc1F
Output: 5.75

----------
assayed_system: Kappa-type opioid receptor (Homo sapiens)
Sequence (P41145 whole entry): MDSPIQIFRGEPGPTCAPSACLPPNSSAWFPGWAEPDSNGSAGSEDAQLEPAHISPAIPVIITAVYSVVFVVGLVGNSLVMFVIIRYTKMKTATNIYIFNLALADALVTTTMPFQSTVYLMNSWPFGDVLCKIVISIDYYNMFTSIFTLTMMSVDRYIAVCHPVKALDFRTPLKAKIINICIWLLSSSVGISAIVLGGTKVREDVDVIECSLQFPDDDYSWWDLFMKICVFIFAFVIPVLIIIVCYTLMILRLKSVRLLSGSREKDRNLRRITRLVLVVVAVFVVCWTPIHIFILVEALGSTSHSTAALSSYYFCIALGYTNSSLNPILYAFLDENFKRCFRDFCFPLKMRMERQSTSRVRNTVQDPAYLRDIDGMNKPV
method_summary: Agonist activity at KOP receptor (unknown origin)
measured_attribute: pEC50
FYI, pEC50 means -log10 of a concentration in mol per litre.

Task: // query pEC50 value for entry Nc1ccnc(-c2cc(-c3ccon3)n(Cc3ccccc3F)n2)n1
Output: 5.82

----------
method_summary: Volume of distribution at steady state in Sprague-Dawley rat at 0.1 mg/kg, iv or 1 mg/kg, po by LC-MS/MS analysis
Assay type: ADME, organism-based
test_conditions: in vivo, read-out: Vdss
measured_attribute: Vd (L/kg)
Expressed in L/kg, but write only the number.

Task: For the compound shown here, Oc1nc(-c2cc(-c3ccon3)n(Cc3ccccc3F)n2)ncc1F , give the reported Vd.
Output: 0.18

----------
method_summary: Cmax in Beagle dog at 1 mg/kg, po by LC-MS/MS analysis
Type: ADME, organism-based, Canis lupus familiaris
Parameters: dose 1 mg/kg, route oral
test_conditions: in vivo
measured_attribute: Cmax (ng/mL)
Please reply with the bare figure in ng/mL and do not write the unit itself.

Task: What Cmax value was documented for this compound, Oc1nc(-c2cc(-c3ccon3)n(Cc3ccccc3F)n2)ncc1F ?
Output: 3500

----------
Recorded microsomal CLint at 2 µM by entry
method_summary: Intrinsic clearance in Sprague-Dawley rat liver microsomes assessed per mg of protein at 2 uM after 10 to 30 mins by LC/MS/MS analysis in presence of NADPH
Assay type: ADME
test_conditions: read-out: CLH
Use µL/min/mg as the unit, but write only the number.

Use these answered entries as a reference point.
1) N#Cc1cnc(-c2cc(-c3ccon3)n(Cc3ccccc3F)n2)nc1O :: 14
2) CS(=O)(=O)c1cnc(-c2cc(-c3ccon3)n(Cc3ccccc3F)n2)nc1O :: 13
3) Oc1nc(-c2cc(C3CC3)n(Cc3ccccc3F)n2)ncc1F :: 10
4) Oc1ccnc(-c2cc(-c3ccon3)n(Cc3ccccc3F)n2)n1 :: 15
5) Oc1nc(-c2cc(-c3ccon3)n(Cc3cccc(F)c3F)n2)ncc1F :: 3

Task: Report microsomal CLint at 2 µM for Nc1ccnc(-c2cc(-c3ccon3)n(Cc3ccccc3F)n2)n1 please.
Output: 26

Task: Fill in the blank: the reported microsomal CLint at 2 µM of Oc1nc(-c2cc(-c3ncon3)n(Cc3ccccc3F)n2)ncc1F is ____.
Output: 4

Task: State the recorded microsomal CLint at 2 µM for this entry: Oc1nc(-c2cc(-c3ccon3)n(Cc3ccccc3F)n2)ncc1C(F)(F)F
Output: 20

Task: Entry under review: Oc1nc(-c2cc(-c3ccon3)n(Cc3sccc3F)n2)ncc1F . Reported microsomal CLint at 2 µM?
Output: 13

Task: Requested field: microsomal CLint at 2 µM. Item: Cc1nc(-c2cc(-c3ccon3)n(Cc3ccccc3F)n2)nc(O)c1F
Output: 16

Task: Given O=c1[nH]c(-c2cc(-c3ccsn3)n(Cc3ccccc3F)n2)ncc1F , state its recorded microsomal CLint at 2 µM.
Output: 129

Task: // query microsomal CLint at 2 µM value for entry O=S(=O)(c1ccc(Cl)cc1)c1cnc(-c2cc(-c3ccon3)n(Cc3ccccc3F)n2)nc1O
Output: 15

Task: Field request: microsomal CLint at 2 µM | item: Cc1cc(-c2cc(-c3ncc(F)c(O)n3)nn2Cc2ccccc2F)no1
Output: 249
